# measurement.notes: protein stability index of a GFP-peptide fusion (GPS, HEK-293T) (PSI 1-6); higher = more stable;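 also: 24-mer peptide tiles fused after GFP, lentivirally expressed, FACS-sorted into six equal bins by GFP/DsRed ratio, decoded by Illumina sequencing, PSI is the read-weighted mean bin number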
# condition.info: treatment: DMSO; c terminus: a fixed tail appended
Outcome: 1 for protein stability index of at least 3; 0 for anything lower.

Query :: Exam item: decide whether the reported protein stability index for QAIQMRLVDVACKHLTDTSHGVRN [INTS4] is at least 3.
Result :: 0

Query :: Exam item: decide whether the reported protein stability index for RPEITSRAINLLFDIARIERCNQL [ZER1] is at least 3.
Result :: 0

Query :: Exam item: decide whether the reported protein stability index for TSASFGEESTPGQTNSETAVVALT [HDAC6] is at least 3.
Result :: 1

Query :: Exam item: decide whether the reported protein stability index for GHRLAQKLQGLENWGQDPGVSANA [PBXIP1] is at least 3.
Result :: 1

Query :: Exam item: decide whether the reported protein stability index for AAIDNGLAFPLKHPDSWRAYPFYW [PI4K2A] is at least 3.
Result :: 0

Query :: Exam item: decide whether the reported protein stability index for CSPSQMDLLCAQLQLPQLSDLGLL [FANCE] is at least 3.
Result :: 0

Query :: Exam item: decide whether the reported protein stability index for ILVSVAAGVSLSTLEELLPPNTRV [PYCR3] is at least 3.
Result :: 0

Query :: Exam item: decide whether the reported protein stability index for YPPPPPALPSSAPSGPPPPPPSVL [WASL] is at least 3.
Result :: 1

Query :: Exam item: decide whether the reported protein stability index for FFHLSALKGYLYAVGGRNAAGELP [KLHL13] is at least 3.
Result :: 0

Query :: Exam item: decide whether the reported protein stability index for EQASAFQEQEIDGKSLLLMTRNDV [SAMD13] is at least 3.
Result :: 1

Query :: Exam item: decide whether the reported protein stability index for SDELSWIIELLEKDGMAFQEALDP [ELF3] is at least 3.
Result :: 0

Query :: Exam item: decide whether the reported protein stability index for FIIHGFIDKGDESWVTDMCKVGAS [PNLIPRP1] is at least 3.
Result :: 0

Query :: Exam item: decide whether the reported protein stability index for INPYSNRESRILFSTWNLDHIIEK [DFFB] is at least 3.
Result :: 0

Query :: Exam item: decide whether the reported protein stability index for KEGDCAPEEKIWEELSVLEVFEGR [MAGEA6] is at least 3.
Result :: 1

Query :: Exam item: decide whether the reported protein stability index for LETRFKIQQLLEPQQYMAFLPHHI [FBXO34] is at least 3.
Result :: 0

Query :: Exam item: decide whether the reported protein stability index for FWPHLKASNWSTTGFGQGQGYTIN [HDAC6] is at least 3.
Result :: 0

Query :: Exam item: decide whether the reported protein stability index for YLIMIFLGLYINFRHLYKQRRRRY [HACD3] is at least 3.
Result :: 0

Query :: Exam item: decide whether the reported protein stability index for TRDYAPPSRGHAYRDYGHSRRDES [RBMY1A1] is at least 3.
Result :: 1

Query :: Exam item: decide whether the reported protein stability index for TEAESEQEGSSGMELSWGQSPGQP [TEX19] is at least 3.
Result :: 1

Query :: Exam item: decide whether the reported protein stability index for NLVLSEDRKSVKFVETRLRDLPDT [TRIM39] is at least 3.
Result :: 1

Query :: Exam item: decide whether the reported protein stability index for GIGKNVICDRTATPLDAFRMTSAA [GFOD1] is at least 3.
Result :: 1

Query :: Exam item: decide whether the reported protein stability index for TMAAKKNRQSSDKQNGRVAKVKGH [C18orf25] is at least 3.
Result :: 1

Query :: Exam item: decide whether the reported protein stability index for LGPELIKESNANPIFMRKDTKMSF [DPCD] is at least 3.
Result :: 1

The reported numbers originate from the supplement of paper PMC10567573.
